System: Mycobacterium tuberculosis
Experiment: Cornell M. t heat shock assay; also: in the data most compounds retested in dose-response had high values
Assay type: functional, organism-based
Set-up: dose or concentration left out as unconfirmed
The whole screen tested about 69,000 compounds, of which about 950 (1.4%) showed an effect of 50% or more. This is one part of a sample in which strong results are shown more often than they occur.
property_name: Percent Effect (%)

molecule: CN(C)[C@@H]1CCN(C(=O)c2ccsc2)[C@H]1Cc1cccnc1.O=C(O)C(F)(F)F.O=C(O)C(F)(F)F
assayed_target: Mycobacterium tuberculosis
assay_result: -16.81
--
molecule: NC(=O)c1ccc(CNC(=O)Nc2cn[nH]c2)cc1
assayed_target: Mycobacterium tuberculosis
assay_result: -17.84
--
molecule: CC1CCCCN1c1nc2c(c(=O)[nH]1)CCN(Cc1ccccn1)C2 (stereo not given)
assayed_target: Mycobacterium tuberculosis
assay_result: -29.02
--
molecule: Fc1cnc(N2CCCC3(CCN(Cc4ccco4)C3)C2)nc1.O=C(O)C(F)(F)F.O=C(O)C(F)(F)F (stereo not given)
assayed_target: Mycobacterium tuberculosis
assay_result: -39.88
--
molecule: Cn1cc(CN2CCc3c(nc(-c4ccccn4)[nH]c3=O)C2)cn1
assayed_target: Mycobacterium tuberculosis
assay_result: -205.6
--
molecule: CN(C)S(=O)(=O)N1CC[C@]2(C[C@@H](Oc3ncccc3F)CO2)C1.O=C(O)C(F)(F)F
assayed_target: Mycobacterium tuberculosis
assay_result: 7.547
--
molecule: Cn1c(CCNc2nccnc2C#N)nc2cc(Cl)ccc21
assayed_target: Mycobacterium tuberculosis
assay_result: -3.646
--
molecule: Cc1nn(C)cc1CN1CCc2c(nc(-c3ccccn3)[nH]c2=O)C1
assayed_target: Mycobacterium tuberculosis
assay_result: 2.88
--
molecule: Cc1cccc(CN2CCc3ncnc(C4CC4)c3CC2)n1.O=C(O)C(F)(F)F
assayed_target: Mycobacterium tuberculosis
assay_result: -23.65
--
molecule: CC(C)Cn1ccnc1CNC(=O)NC(C)c1nccs1 (stereo not given)
assayed_target: Mycobacterium tuberculosis
assay_result: 55.14
--
molecule: Cc1nnc(N2CC[C@H]3O[C@H](C(=O)NCc4ccccn4)CC[C@H]32)s1.O=C(O)C(F)(F)F.O=C(O)C(F)(F)F
assayed_target: Mycobacterium tuberculosis
assay_result: -4.989
--
molecule: Cc1nc(C(C)NC(=O)NCc2nccn2CC(C)C)cs1 (stereo not given)
assayed_target: Mycobacterium tuberculosis
assay_result: 0.1192
--
molecule: O=c1[nH]c(-c2ccccn2)nc2c1CCN(Cc1cccc(O)c1)C2
assayed_target: Mycobacterium tuberculosis
assay_result: 53.42
--
molecule: Cn1cccc1CN1CCc2c(nc(-c3ccccn3)[nH]c2=O)C1
assayed_target: Mycobacterium tuberculosis
assay_result: 73.71
--
molecule: CN(C(=O)C1CCOCC1)[C@@H]1CCC[C@@H](N2CCOCC2)[C@@H]1O
assayed_target: Mycobacterium tuberculosis
assay_result: -10.17
--
molecule: O=C(O)C(F)(F)F.c1cnc(N2CCOCC3(CN(Cc4cc[nH]n4)CCO3)C2)nc1 (stereo not given)
assayed_target: Mycobacterium tuberculosis
assay_result: -18.22
--
molecule: COCC1CC2(CCN(c3ccc(C)nn3)CC2)CN1C(C)C.O=C(O)C(F)(F)F (stereo not given)
assayed_target: Mycobacterium tuberculosis
assay_result: -4.94
--
molecule: O=C(O)C(F)(F)F.O=C(c1ccco1)N1CCO[C@@H]2CN(Cc3nccs3)CC[C@@H]2C1
assayed_target: Mycobacterium tuberculosis
assay_result: 4.898
--
molecule: O=C(c1ccccn1)N1CCc2c(nc(-c3ccncc3)[nH]c2=O)C1
assayed_target: Mycobacterium tuberculosis
assay_result: -10.2
--
molecule: Cc1ccc2c(c1)C(NC(=O)N(C)C)CC21CCN(CC2CC2)CC1.O=C(O)C(F)(F)F (stereo not given)
assayed_target: Mycobacterium tuberculosis
assay_result: -3.475
